- System: Plasmodium falciparum
- Experiment: Antimalarial activity against Plasmodium falciparum K1
- Format: functional
- Assay Conditions: Plasmodium falciparum, K1; read-out: ED50 (the source's name)
pEC50: −log10 of the molar value.
Task for the reader: assign each of the following compounds its reported pEC50.

As a guide, the following entries are already answered.
{"Compound": "Cc1noc(C)c1CN(C1Cc2cc(C#N)ccc2N(Cc2cncn2C)C1)S(=O)(=O)c1cn(C)cn1 (centres undefined)", "pEC50": "> 7.70"}
{"Compound": "Cc1nc(C)c(S(=O)(=O)N(CC(=O)NC(C)(C)C)C2Cc3cc(C#N)ccc3N(Cc3cncn3C)C2)s1 (centres undefined)", "pEC50": "< 5.30"}
{"Compound": "COC(=O)N1CCC(CN(C2Cc3cc(C#N)ccc3N(Cc3cncn3C)C2)S(=O)(=O)c2ccc3oc(=O)ccc3c2)CC1 (centres undefined)", "pEC50": "< 5.30"}

Now for the compound whose pEC50 we want.
[ask] Entry CN(C1Cc2cc(-c3ccccc3)ccc2N(Cc2cn(C)cn2)C1)S(=O)(=O)c1cn(C)cn1 (centres undefined) has what pEC50?
[reply] < 5.30
